Target: UniProt Q5S007
pIC50: −log10 of the molar value.
Group membership follows pIC50 per the scheme low: < 7; moderate: ≥ 7 and < 8; high: ≥ 8

Compound | Assay system | Label value
C[C@H]1COC[C@@H]1n1c(C#N)cc2cnc(Nc3ccc(C(C)(C)O)cc3OC3COC3)nc21 [Example 20] | UniProt Q5S007 | high
C[C@H]1COC[C@@H]1n1c(C#N)cc2cnc(Nc3cn(C(C)(C)C#N)nc3OC3COC3)nc21 [Example 27] | UniProt Q5S007 | high
[2H]C([2H])([2H])n1cc(Nc2ncc3cc(C#N)n([C@@H](C)COC)c3n2)c(OC2CC(O)C2(C)C)n1 (single isomer, unassigned) [Example 135] | UniProt Q5S007 | moderate
CO[C@@H]1COC[C@H]1n1c(C#N)cc2cnc(Nc3cn(C)nc3OC3COC3)nc21 (racemic) [Example 70] | UniProt Q5S007 | low
COCC(C)n1c(C#N)cc2cnc(Nc3cn(C4CCC(C)(O)CC4)nc3OC(C)C)nc21 (centres unmarked) [Example 104] | UniProt Q5S007 | moderate
CC(Oc1nn(C2COC2)cc1Nc1ncc2cc(C#N)n([C@H]3COC[C@@H]3C)c2n1)C(F)(F)F (single isomer, unassigned) [Example 11] | UniProt Q5S007 | moderate
C[C@H]1COC[C@H]1n1c(C#N)cc2cnc(Nc3cn(C)nc3OC3COC3)nc21 (single isomer, unassigned) [Example 45] | UniProt Q5S007 | moderate
C[C@@H]1COCC[C@H]1n1c(C#N)cc2cnc(Nc3cn(CCO)nc3OC3COC3)nc21 (single isomer, unassigned) [Example 160] | UniProt Q5S007 | low
C[C@@H]1OC[C@H]1n1c(C#N)cc2cnc(Nc3cn(C)nc3OC3COC3)nc21 (single isomer, unassigned) [Example 77] | UniProt Q5S007 | moderate
CC(C)Oc1nn(CC(F)(F)F)cc1Nc1ncc2cc(C#N)n([C@H]3COC[C@@H]3C)c2n1 [Example 25] | UniProt Q5S007 | high
CO[C@H]1COC[C@H]1n1c(C#N)cc2cnc(Nc3ccc(C(C)(C)O)cc3OC3COC3)nc21 [Example 55] | UniProt Q5S007 | moderate
CC(C)Oc1nn(C(C)(C)C#N)cc1Nc1ncc2cc(C#N)n([C@H]3COC[C@@H]3C)c2n1 [Example 29] | UniProt Q5S007 | high

====

The reader will find reported IC50 values listed item by item below.
Biological target: full-length LRRK2 wild type (Homo sapiens, UniProt Q5S007)
Sequence (Q5S007 whole entry): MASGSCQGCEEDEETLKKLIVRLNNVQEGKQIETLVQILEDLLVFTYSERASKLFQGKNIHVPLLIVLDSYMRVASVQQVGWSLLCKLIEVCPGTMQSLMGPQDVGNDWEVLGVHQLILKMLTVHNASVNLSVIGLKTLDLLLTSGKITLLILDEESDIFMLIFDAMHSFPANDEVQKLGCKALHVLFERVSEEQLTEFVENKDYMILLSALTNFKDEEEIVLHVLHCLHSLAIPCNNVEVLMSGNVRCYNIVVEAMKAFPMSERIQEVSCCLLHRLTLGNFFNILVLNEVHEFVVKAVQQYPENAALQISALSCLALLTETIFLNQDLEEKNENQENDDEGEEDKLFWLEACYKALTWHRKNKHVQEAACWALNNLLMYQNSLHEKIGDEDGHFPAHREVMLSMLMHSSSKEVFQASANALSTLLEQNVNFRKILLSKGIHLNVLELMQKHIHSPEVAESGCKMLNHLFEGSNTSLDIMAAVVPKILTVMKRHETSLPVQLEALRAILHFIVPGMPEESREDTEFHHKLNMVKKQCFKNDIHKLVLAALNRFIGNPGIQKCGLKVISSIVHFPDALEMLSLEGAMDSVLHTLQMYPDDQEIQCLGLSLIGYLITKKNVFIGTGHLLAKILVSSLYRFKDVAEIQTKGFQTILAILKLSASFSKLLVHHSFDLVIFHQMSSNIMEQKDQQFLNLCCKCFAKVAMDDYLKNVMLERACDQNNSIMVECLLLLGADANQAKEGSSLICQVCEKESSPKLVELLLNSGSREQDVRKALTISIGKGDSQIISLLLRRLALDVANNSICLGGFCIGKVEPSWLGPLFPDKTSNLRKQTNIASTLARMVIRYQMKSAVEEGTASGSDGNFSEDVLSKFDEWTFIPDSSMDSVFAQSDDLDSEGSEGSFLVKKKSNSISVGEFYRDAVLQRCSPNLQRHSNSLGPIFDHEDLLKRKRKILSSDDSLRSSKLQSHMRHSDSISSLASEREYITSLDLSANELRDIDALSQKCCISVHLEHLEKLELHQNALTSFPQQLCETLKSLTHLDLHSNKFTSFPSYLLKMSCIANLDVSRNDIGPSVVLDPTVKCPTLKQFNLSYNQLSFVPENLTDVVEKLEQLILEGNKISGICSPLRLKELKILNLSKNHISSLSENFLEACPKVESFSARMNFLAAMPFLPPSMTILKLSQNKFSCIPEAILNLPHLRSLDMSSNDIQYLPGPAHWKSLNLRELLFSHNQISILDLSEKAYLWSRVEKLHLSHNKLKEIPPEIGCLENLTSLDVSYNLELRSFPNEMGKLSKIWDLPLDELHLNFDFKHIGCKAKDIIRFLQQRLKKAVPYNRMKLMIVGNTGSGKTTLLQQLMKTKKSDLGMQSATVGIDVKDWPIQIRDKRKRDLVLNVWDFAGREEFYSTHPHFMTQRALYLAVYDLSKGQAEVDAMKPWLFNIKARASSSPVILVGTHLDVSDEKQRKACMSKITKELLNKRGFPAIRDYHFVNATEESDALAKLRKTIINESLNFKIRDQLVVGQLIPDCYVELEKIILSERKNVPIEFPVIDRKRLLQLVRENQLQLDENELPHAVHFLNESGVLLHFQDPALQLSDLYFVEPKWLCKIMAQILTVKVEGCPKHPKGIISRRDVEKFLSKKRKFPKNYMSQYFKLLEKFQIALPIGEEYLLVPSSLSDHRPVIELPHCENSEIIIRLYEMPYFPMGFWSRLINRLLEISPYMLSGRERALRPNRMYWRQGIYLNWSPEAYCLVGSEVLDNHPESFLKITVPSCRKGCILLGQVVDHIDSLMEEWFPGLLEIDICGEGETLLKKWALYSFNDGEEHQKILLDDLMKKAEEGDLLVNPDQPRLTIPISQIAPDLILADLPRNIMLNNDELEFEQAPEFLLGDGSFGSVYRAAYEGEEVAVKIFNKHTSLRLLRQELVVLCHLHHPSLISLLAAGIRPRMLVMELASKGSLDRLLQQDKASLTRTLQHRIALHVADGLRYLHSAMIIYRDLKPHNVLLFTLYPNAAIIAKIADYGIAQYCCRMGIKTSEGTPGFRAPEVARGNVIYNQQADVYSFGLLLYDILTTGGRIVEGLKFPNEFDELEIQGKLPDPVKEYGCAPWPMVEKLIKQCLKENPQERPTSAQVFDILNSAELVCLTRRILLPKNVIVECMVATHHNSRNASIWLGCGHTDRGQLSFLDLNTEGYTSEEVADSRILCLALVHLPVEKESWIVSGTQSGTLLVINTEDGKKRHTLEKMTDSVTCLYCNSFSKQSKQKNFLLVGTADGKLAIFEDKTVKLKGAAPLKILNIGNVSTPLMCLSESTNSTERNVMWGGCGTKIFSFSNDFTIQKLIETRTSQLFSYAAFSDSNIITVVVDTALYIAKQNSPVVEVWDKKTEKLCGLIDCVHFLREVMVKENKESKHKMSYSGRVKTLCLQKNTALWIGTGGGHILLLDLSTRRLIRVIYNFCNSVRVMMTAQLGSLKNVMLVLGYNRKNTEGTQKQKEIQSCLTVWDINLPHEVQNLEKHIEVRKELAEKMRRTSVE

Compound | IC50, nM
[2H]C([2H])([2H])n1cc(Nc2ncc3cc(C#N)n(C4COCC4C)c3n2)c(OC2CCC2(C)O)n1 (single isomer, unassigned) [Example 141] | 44
COC[C@H](C)n1c(C#N)cc2cnc(Nc3cn(COC)nc3OC3CC3)nc21 [Example 92] | 6
COC[C@H](C)n1c(C#N)cc2cnc(Nc3cn(CCO)nc3OC3COC3)nc21 [Example 139] | 22
CO[C@@H]1COC[C@H]1Oc1nn(C)cc1Nc1ncc2cc(C#N)n([C@H]3COC[C@@H]3C)c2n1 (single isomer, unassigned) [Example 13] | 13
CC(C(F)F)n1cc(Nc2ncc3cc(C#N)n([C@H]4COC[C@@H]4C)c3n2)c(OC2COC2)n1 (single isomer, unassigned) [Example 5] | 4
C[C@@H]1OC[C@H]1Oc1nn(C)cc1Nc1ncc2cc(C#N)n([C@H]3COC[C@@H]3C)c2n1 (single isomer, unassigned) [Example 6] | 5
CC(Oc1nn(C2COC2)cc1Nc1ncc2cc(C#N)n([C@H]3COC[C@@H]3C)c2n1)C(F)(F)F (single isomer, unassigned) [Example 10] | 1
CC(C(F)F)n1cc(Nc2ncc3cc(C#N)n([C@H]4COC[C@@H]4C)c3n2)c(OC2COC2)n1 (single isomer, unassigned) [Example 4] | 1

====

The reader will find reported pIC50 values listed item by item below.
Target: full-length LRRK2 wild type (Homo sapiens, UniProt Q5S007)
pIC50: −log10 of the molar value.
Result type: pIC50

Compound | Test value
C[C@H]1COC[C@@H]1n1c(C#N)cc2cnc(Nc3cn(C)nc3OC3COC3)nc21 | 8.22
COCC(C)n1cc(Nc2ncc3cc(C#N)n([C@H]4COC[C@@H]4C)c3n2)c(OC2COC2)n1 (some centres unmarked) | 7.09
[2H]C([2H])([2H])n1cc(Nc2ncc3cc(C#N)n([C@H]4COC[C@@H]4C)c3n2)c(OC2CCOC2)n1 (single isomer, unassigned) [Example 112] | 7.89
CCn1cc(Nc2ncc3cc(C#N)n([C@H]4COC[C@@H]4C)c3n2)c(OC2COC2)n1 | 8.22
CO[C@H]1COC[C@H]1n1c(C#N)cc2cnc(Nc3cn(C(C)C#N)nc3OC(C)C)nc21 (single isomer, unassigned) | 8.15
COC[C@H](C)n1c(C#N)cc2cnc(Nc3cn(CCO)nc3OC3CCOCC3)nc21 | 7.96
CO[C@@H]1COC[C@H]1Oc1nn(C)cc1Nc1ncc2cc(C#N)n([C@H]3COC[C@@H]3C)c2n1 (single isomer, unassigned) [Example 12] | 8.10
COCn1cc(Nc2ncc3cc(C#N)n([C@H]4COC[C@@H]4C)c3n2)c(O[C@@H]2CO[C@H]2C)n1 (mixture of isomers) | 8.00
